Data provenance is patent US20110039762A1.

System: microorganisms
Experiment: Peptides having multiple activities (targeting/binding, antimicrobial, growth or phenotype altering)
Source text: In certain embodiments, peptides described herein can have multiple activities. Thus for example, a peptide can have both binding/targeting activity and antimicrobial activity. Such peptides can be used, e.g., in a chimeric construct, for any or all of these properties. Thus, for example, a peptide designated “B” in Table 8 can be used as a targeting peptide. If it is also designated G or M it can also be used for antimicrobial activity.
MEASUREMENT KIND: Activities

// below: answered substances
INSERT INTO results (substance, system_name, endpoint_result) VALUES
  ('PF-397: peptide having multiple activities (VEDLMEDLNA; Peptide with targeting and/or antimicrobial activity)', 'microorganisms', 'G B'),
  ('PF-128: peptide having multiple activities (GIKVVAARFEEIQFSENFDSIILA; Peptide with targeting and/or antimicrobial activity)', 'microorganisms', 'G B'),
  ('PF-063: peptide having multiple activities (chain 1 IAAIIVLVLFQKGLLQIFNWILIQLQ; chain 2 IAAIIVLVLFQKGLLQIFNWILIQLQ; Peptide with targeting and/or antimicrobial activity)', 'microorganisms', 'G B'),
  ('PF-516: peptide having multiple activities (ASKQASKQASKQASKQ; Peptide with targeting and/or antimicrobial activity)', 'microorganisms', 'G');

q: Using the record for PF-176: peptide having multiple activities (RLTSNQFLTRITPFVFAQH; Peptide with targeting and/or antimicrobial activity) , state its measured Activities.
a: G B
